Test system: myeloid leukemia patient primary cells Pat.15
Experiment: area under dose-response curve (viability, 1 nM-10 uM) (fraction (0-1)); higher = more sensitive
Details: 72 h
readout-name: area under dose-response curve
Give your answer as a number; write no unit.

Query block: Query area under dose-response curve on myeloid leukemia patient primary cells Pat.15 for Cc1cc2c(C(C)C)c(O)c(O)c(C=O)c2c(O)c1-c1c(C)cc2c(C(C)C)c(O)c(O)c(C=O)c2c1O
Result block: 0.0654

Query block: Check CO[C@H]1C[C@@H]2CC[C@@H](C)[C@@](O)(O2)C(=O)C(=O)N2CCCC[C@H]2C(=O)O[C@H]([C@H](C)C[C@@H]2CC[C@@H](OC(=O)C(C)(CO)CO)[C@H](OC)C2)CC(=O)[C@H](C)/C=C(\C)[C@@H](O)[C@@H](OC)C(=O)[C@H](C)C[C@H](C)/C=C/C=C/C=C/1C too.
Result block: 0.584

Query block: Check c1cc(-c2cnn3cc(-c4ccc(OCCN5CCCCC5)cc4)cnc23)ccn1 too.
Result block: 0.0705

Query block: Check O=C(/C=C/c1ccc(O)c(O)c1)OCCc1ccccc1 too.
Result block: 0.145
